The values you see were collected from patent US20230340114A1.

# Tested system: T1, human LILRB4 expressed on cells (human, UniProt Q8NHJ6 22-448)
# T1 construct: whole, on cells; also called ILT3; CD85k
# Protocol: FACS, CHO-stable cells expressing human LILRB4
pEC50: −log10 of the molar value.

{"Binder": "H7K3 variant 5, K3m1 (N/V) (antibody, V domains shown) VH: EVQLVESGGGLVQPGGSLRLSCAASGFSLSSSYWISWVRQAPGKGLEWIGSIDSGSVGITYYATWVKGRFTISRDNSKNTLYLQMNSLRAEDTAVYYCARHGDNWALDLWGQGTLVTVSS VL: DIQMTQSPSTLSASVGDRVTITCRASQSIVSWLAWYQQKPGKAPKLLIYKASTLASGVPSRFSGSGSGTEFTLTISSLQPDDFATYYCQHGYIRGDLDNVFGGGTKVEIK", "pEC50": 9.33}
{"Binder": "H7K3 variant 11, K3m7 (S/Q) (antibody, V domains shown) VH: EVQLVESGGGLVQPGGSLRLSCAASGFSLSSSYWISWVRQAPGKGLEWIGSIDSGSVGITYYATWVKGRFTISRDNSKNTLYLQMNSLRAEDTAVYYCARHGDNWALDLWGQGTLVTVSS VL: DIQMTQSPSTLSASVGDRVTITCRASQSINQWLAWYQQKPGKAPKLLIYKASTLASGVPSRFSGSGSGTEFTLTISSLQPDDFATYYCQHGYIRGDLDNVFGGGTKVEIK", "pEC50": 9.34}
{"Binder": "H7K3m5 (antibody, V domains shown, Full-length IgG; human IgG1 is used as its isotype control; Only variable regions are tied to the name; Wild type (fucosylated) form unless said otherwise; also called variant 9; K3m5 (N/S)) VH: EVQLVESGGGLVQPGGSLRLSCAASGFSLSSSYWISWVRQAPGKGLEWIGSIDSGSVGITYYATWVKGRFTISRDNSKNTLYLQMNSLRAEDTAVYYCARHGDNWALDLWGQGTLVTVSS VL: DIQMTQSPSTLSASVGDRVTITCRASQSISSWLAWYQQKPGKAPKLLIYKASTLASGVPSRFSGSGSGTEFTLTISSLQPDDFATYYCQHGYIRGDLDNVFGGGTKVEIK", "pEC50": 9.38}
